# test system: RSV F protein on respiratory syncytial virus (RSV-Long strain) (respiratory syncytial virus (Long strain)) (UniProt P12568)
# Sequence (P12568 26-574): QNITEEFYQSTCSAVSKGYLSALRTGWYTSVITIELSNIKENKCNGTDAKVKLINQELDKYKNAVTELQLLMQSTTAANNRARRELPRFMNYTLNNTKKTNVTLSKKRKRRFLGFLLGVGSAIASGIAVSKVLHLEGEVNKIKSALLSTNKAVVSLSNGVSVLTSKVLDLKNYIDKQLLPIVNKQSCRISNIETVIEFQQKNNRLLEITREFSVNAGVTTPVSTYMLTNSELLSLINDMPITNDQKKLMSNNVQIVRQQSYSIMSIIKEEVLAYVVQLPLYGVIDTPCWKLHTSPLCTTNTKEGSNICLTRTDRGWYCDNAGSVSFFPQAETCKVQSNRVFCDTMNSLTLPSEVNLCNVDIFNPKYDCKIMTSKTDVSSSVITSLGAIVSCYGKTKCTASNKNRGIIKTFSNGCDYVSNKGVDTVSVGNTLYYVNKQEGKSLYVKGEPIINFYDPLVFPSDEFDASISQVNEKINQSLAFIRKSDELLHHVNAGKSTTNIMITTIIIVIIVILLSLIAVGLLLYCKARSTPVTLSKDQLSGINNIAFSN
# assay: cell-based or functional assay
Fold Difference (Control IC50) vs 20 fold: at or above is T, below is F.

* A4B4 monoclonal antibody (antibody, V domains shown) VH: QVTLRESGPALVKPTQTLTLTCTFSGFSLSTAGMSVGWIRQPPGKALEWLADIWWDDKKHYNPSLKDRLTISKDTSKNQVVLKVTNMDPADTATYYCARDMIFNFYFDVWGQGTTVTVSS VL: DIQMTQSPSTLSASVGDRVTITCSASSRVGYMHWYQQKPGKAPKLLIYDTFFLDSGVPSRFSGSGSGTEFTLTISSLQPDDFATYYCFQGSGYPFTFGGGTKVEIK | T
* A17d4(1) Fab fragment (Fab, V domains shown) VH: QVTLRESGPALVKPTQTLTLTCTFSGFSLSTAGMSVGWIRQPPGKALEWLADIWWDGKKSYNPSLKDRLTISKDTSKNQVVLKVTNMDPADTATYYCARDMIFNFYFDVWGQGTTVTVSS VL: DIQMTQSPSTLSASVGDRVTITCLPSSRVGYMHWYQQKPGKAPKLLIYDTMYQSSGVPSRFSGSGSGTEFTLTISSLQPDDFATYYCFQGSGYPFTFGGGTKVEIK | T
* A4B4 Fab fragment (Fab, V domains shown) VH: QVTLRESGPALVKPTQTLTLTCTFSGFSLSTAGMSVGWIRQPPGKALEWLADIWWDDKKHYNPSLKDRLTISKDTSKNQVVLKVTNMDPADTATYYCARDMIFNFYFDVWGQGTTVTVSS VL: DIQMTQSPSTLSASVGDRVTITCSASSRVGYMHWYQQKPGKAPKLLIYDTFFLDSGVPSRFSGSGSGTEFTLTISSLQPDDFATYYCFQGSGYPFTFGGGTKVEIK | F
* A13a11 Fab fragment (Fab, V domains shown) VH: QVTLRESGPALVKPTQTLTLTCTFSGFSLSTAGMSVGWIRQPPGKALEWLADIWWDDKKHYNPSLKDRLTISKDTSKNQVVLKVTNMDPADTATYYCARDMIFNWYFDVWGQGTTVTVSS VL: DIQMTQSPSTLSASVGDRVTITCSPSSRVGYMHWYQQKPGKAPKLLIYDTYRHSSGVPSRFSGSGSGTEFTLTISSLQPDDFATYYCFQGSGYPFTFGGGTKVEIK | F
* P11d4 monoclonal antibody (antibody, V domains shown) VH: QVTLRESGPALVKPTQTLTLTCTFSGFSLSTPGMSVGWIRQPPGKALEWLADIWWDGKKHYNPSLKDRLTISKDTSKNQVVLKVTNMDPADTATYYCARDMIFNWYFDVWGQGTTVTVSS VL: DIQMTQSPSTLSASVGDRVTITCSPSSRVGYMHWYQQKPGKAPKLLIYDTMRLASGVPSRFSGSGSGTEFTLTISSLQPDDFATYYCFQGSGYPFTFGGGTKVEIK | F
* A12a6 Fab fragment (Fab, V domains shown) VH: QVTLRESGPALVKPTQTLTLTCTFSGFSLSTAGMSVGWIRQPPGKALEWLADIWWDGKKDYNPSLKDRLTISKDTSKNQVVLKVTNMDPADTATYYCARDMIFNFYFDVWGQGTTVTVSS VL: DIQMTQSPSTLSASVGDRVTITCSASSRVGYMHWYQQKPGKAPKLLIYDTFKLSSGVPSRFSGSGSGTEFTLTISSLQPDDFATYYCFQGSGYPFTFGGGTKVEIK | F
* A12a6 monoclonal antibody (antibody, V domains shown) VH: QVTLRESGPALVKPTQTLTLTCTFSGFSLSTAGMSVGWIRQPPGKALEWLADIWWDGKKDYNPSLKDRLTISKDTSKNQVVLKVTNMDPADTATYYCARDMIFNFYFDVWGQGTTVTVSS VL: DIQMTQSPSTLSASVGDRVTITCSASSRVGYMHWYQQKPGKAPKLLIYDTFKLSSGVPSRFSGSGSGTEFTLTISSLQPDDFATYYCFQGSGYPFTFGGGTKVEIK | F
* A17d4(1) monoclonal antibody (antibody, V domains shown) VH: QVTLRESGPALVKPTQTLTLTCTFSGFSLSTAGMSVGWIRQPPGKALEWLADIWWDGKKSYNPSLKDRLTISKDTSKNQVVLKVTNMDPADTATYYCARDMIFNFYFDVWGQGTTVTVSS VL: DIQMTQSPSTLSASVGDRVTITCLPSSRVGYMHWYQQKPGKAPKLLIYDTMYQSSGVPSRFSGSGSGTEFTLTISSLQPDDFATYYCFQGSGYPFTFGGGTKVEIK | F
* A8c7 Fab fragment (Fab, V domains shown) VH: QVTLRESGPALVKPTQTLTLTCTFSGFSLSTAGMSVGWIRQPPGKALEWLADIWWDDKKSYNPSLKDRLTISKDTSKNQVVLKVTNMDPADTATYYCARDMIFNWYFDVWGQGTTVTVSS VL: DIQMTQSPSTLSASVGDRVTITCSPSSRVGYMHWYQQKPGKAPKLLIYDTRYQSSGVPSRFSGSGSGTEFTLTISSLQPDDFATYYCFQGSGYPFTFGGGTKVEIK | T
* P12f2 Fab fragment (Fab, V domains shown) VH: QVTLRESGPALVKPTQTLTLTCTFSGFSLSTPGMSVGWIRQPPGKALEWLADIWWDDKKHYNPSLKDRLTISKDTSKNQVVLKVTNMDPADTATYYCARDMIFNFYFDVWGQGTTVTVSS VL: DIQMTQSPSTLSASVGDRVTITCSLSSRVGYMHWYQQKPGKAPKLLIYDTFYLSSGVPSRFSGSGSGTEFTLTISSLQPDDFATYYCFQGSGYPFTFGGGTKVEIK | F
